Please go through the items and note down their pIC50.
# System: NCI-H2073 cells (wild-type EGFR human non-small cell lung cancer)
# experiment: Cell growth inhibition (Cell Titer-Glo), NCI-H2073
# Type: cell-based
# conditionsUsed: 72 hours drug treatment, 3 nM to 10 μM
Lab note — pIC50 values are minus log10 of concentrations in M.

Form field pIC50 for item C=CC(=O)Nc1cc(Nc2nccc(-n3c(=O)n(CC(F)F)c4ccccc43)n2)c(OC)cc1N(C)CCN(C)C [109. (MsOH)2] on NCI-H2073 cells (wild-type EGFR human non-small cell lung cancer): 6.57

Form field pIC50 for item C=CC(=O)Nc1cc(Nc2nccc(-n3c(=O)[nH]c4ccccc43)n2)c(OC)cc1N(C)CCN(C)C [39. (MsOH)3] on NCI-H2073 cells (wild-type EGFR human non-small cell lung cancer): 7.74

Form field pIC50 for item [2H]C([2H])([2H])N(CCN(C)c1cc(OC)c(Nc2nccc(-n3c(=O)n(CC)c4ccccc43)n2)cc1NC(=O)C=C)C([2H])([2H])[2H] [69. (MsOH)3] on NCI-H2073 cells (wild-type EGFR human non-small cell lung cancer): 7.20

====

# Test system: NCI-H2073 cells (wild-type EGFR human non-small cell lung cancer)
# experiment: Cell growth inhibition (Cell Titer-Glo), NCI-H2073
# Format: cell-based
# conditionsUsed: 72 hours drug treatment, 3 nM to 10 μM
Where a name gives a salt, the structure may show the parent alone.
observedProperty: log10 of IC50 (log10 of the value in nM)
Kindly note that the scale is log10 and the underlying IC50 is in nM.

Sample C=CC(=O)Nc1cc(Nc2nccc(-n3c(=O)n(C)c4ccccc43)n2)c(OC)cc1N(C)CCN(C)C [40. (MsOH)3] ; log10 of IC50 observed: 2.26

Sample [2H]C([2H])([2H])N(CCN(C)C)c1cc(OC)c(Nc2nccc(-n3nnc4ccccc43)n2)cc1NC(=O)C=C [74. (MsOH)3] ; log10 of IC50 observed: 2.67

Sample C=CC(=O)Nc1cc(Nc2nccc(-n3cc(S(C)(=O)=O)c4ccccc43)n2)c(OC)cc1N(C)CCN(C)C [112. (MsOH)2] ; log10 of IC50 observed: 3.73

Sample C=CC(=O)Nc1cc(Nc2nccc(-c3cn(CC)c4ccccc34)n2)c(OC)cc1N(C)CCN(C)C [48. (HCl)n] ; log10 of IC50 observed: 2.64

Sample C=CC(=O)Nc1cc(Nc2nccc(-c3cn(S(=O)(=O)C4CC4)c4ccccc34)n2)c(OC)cc1N(C)CCN(C)C [103. (MsOH)2] ; log10 of IC50 observed: 2.48

Sample C=CC(=O)Nc1cc(Nc2nccc(-c3nn(CC)c4ccccc34)n2)c(OC)cc1N(C)CCN(C)C [51. (HCl)n] ; log10 of IC50 observed: 2.51

Sample C=CC(=O)Nc1cc(Nc2nccc(-c3cn(C)c4ccccc34)n2)c(OC)cc1N(C)CCN1CCC(O)C1 (centres unmarked) [53. (HCl)n] ; log10 of IC50 observed: 2.84

Sample C=CC(=O)Nc1cc(Nc2nccc(-c3cn(C)c4ccccc34)n2)c(OC)cc1N(C)CCN(C)CC [7. (MsOH)3] ; log10 of IC50 observed: 2.88

Sample [2H]C([2H])([2H])N(CCN(C)c1cc(OC)c(Nc2nccc(-c3cn(S(C)(=O)=O)c4ccccc34)n2)cc1NC(=O)C=C)C([2H])([2H])[2H] [70. (MsOH)2] ; log10 of IC50 observed: 1.66

Sample C=CC(=O)Nc1cc(Nc2nccc(-c3cn(C)c4ccccc34)n2)c(OC)cc1OCCN(C)C [29. (MsOH)2] ; log10 of IC50 observed: 3.40

Sample C=CC(=O)Nc1cc(Nc2nccc(N3CCOc4ccccc43)n2)c(OC)cc1N(C)CCN(C)C [36. (MsOH)3] ; log10 of IC50 observed: 2.61

Sample [2H]C([2H])([2H])N(CCN(C)c1cc(OC)c(Nc2nccc(N3CCc4ccccc43)n2)cc1NC(=O)C=C)C([2H])([2H])[2H] [62. (HCl)n] ; log10 of IC50 observed: 2.43

Sample C=CC(=O)Nc1cc(Nc2nccc(-n3c(=O)n(CC)c4ccccc43)n2)c(OC)cc1N(C)CCN(C)C [66. (MsOH)3] ; log10 of IC50 observed: 2.30

Sample [2H]C([2H])([2H])N(CCN(C)c1cc(OC)c(Nc2nccc(-n3cc(C)c4ccccc43)n2)cc1NC(=O)C=C)C([2H])([2H])[2H] [63. (HCl)n] ; log10 of IC50 observed: 2.61
